# MIC per entry
Tested on: Salmonella enterica subsp. enterica
Test: Antimicrobial activity against Salmonella Typhimurium ATCC 14028 after 18 hrs by broth microdilution susceptibility test
Assay type: functional, Salmonella enterica subsp. enterica serovar Typhimurium
Details: ATCC 14028, 18 h
Non-standard residues stand in square brackets, D forms with d. Residues, ends and D or L forms follow the SMILES beside them. Gly(N-(CH2)3-guanidino) = N=C(N)NCCCNCC(=O)O

>>> recorded_value("CC[C@H](C)[C@H](NC(=O)[C@H](Cc1ccc(O)cc1)NC(=O)[C@@H](NC(=O)[C@@H]1CCCN1C(=O)[C@H](CCCNC(=N)N)NC(=O)[C@H](CC(N)=O)NC(=O)[C@H](CC(N)=O)NC(=O)CN)C(C)C)C(=O)N1CCC[C@H]1C(=O)N[C@@H](CCC(N)=O)C(=O)N1CCC[C@H]1C(=O)N[C@@H](CCCNC(=N)N)C(=O)N1CCC[C@H]1C(=O)N1CCC[C@H]1C(=O)N[C@@H](Cc1cnc[nH]1)C(=O)N1CCC[C@H]1C(=O)N(CCCNC(=N)N)CC(=O)N[C@@H](CC(C)C)C(=O)O (H-GNNRPVYIPQPRPPHP[Gly(N-(CH2)3-guanidino)]L-OH)")
"> 128 µM"

Incoming: Give the reported value of MIC for this record: CC[C@H](C)[C@H](NC(=O)[C@H](Cc1ccc(O)cc1)NC(=O)[C@@H](NC(=O)[C@H](CCCNC(=N)N)NC(=O)[C@H](CC(N)=O)NC(=O)[C@H](CC(N)=O)NC(=O)CN)C(C)C)C(=O)N1CCC[C@H]1C(=O)N[C@@H](CCC(N)=O)C(=O)N1CCC[C@H]1C(=O)N[C@@H](CCCNC(=N)N)C(=O)N1CCC[C@H]1C(=O)N[C@@H](Cc1cnc[nH]1)C(=O)N1CCC[C@H]1C(=O)N[C@@H](CCCNC(=N)N)C(=O)N[C@@H](CC(C)C)C(=O)O (H-GNNRVYIPQPRPHPRL-OH)
Outgoing: > 128 µM

Hello, the source for this data is ChEMBL document CHEMBL1152983, in case you need it.
